Exercise: state measured AC50 for each of the molecules provided.
Tested on: INS-1E rat beta cells, no cytokines, CellTiter-Glo ATP, 48 h
Assay: cytokine-free beta-cell viability effect – INS-1E rat cells, ATP luminescence, cherry pick, counter-screen for beta-cell apoptosis protection project, dose response (AID 463229)
The source made the active and inactive calls.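 Rule for the calls: active = compounds raising the signal whose fitted half-maximal concentration is at or below their top tested dose (cut at about 25 µM in these data); inconclusive = flat fit at 30 to 70% activity, or a poor fit; inactive = the rest.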

Prompt: Provide only the value of recorded AC50 for Cc1ccc(-n2ncc3c2CCCC3NC(=O)c2ocnc2C)cc1C (stereo not given)
Completion: 6.97 µM

Prompt: Provide only the value of recorded AC50 for COc1ccc2c(c1)c(/C=N/Nc1nc3ccccc3[nH]1)c(C)n2C
Completion: 14.7 µM

Prompt: Provide only the value of recorded AC50 for CCOc1ccc(C(Nc2cccnc2)c2cc(Cl)c3cccnc3c2O)cc1 (stereo not given)
Completion: 7.33 µM

Prompt: Provide only the value of recorded AC50 for N=c1c2c(n(Cc3ccc(Cl)cc3Cl)c3c1CCC3)CCCC2
Completion: 3.99 µM

Prompt: Provide only the value of recorded AC50 for Cc1c(C)c2cccnc2c2ncccc12
Completion: 2.49 µM

Prompt: Provide only the value of recorded AC50 for Cc1ccc(C(C)C)c(OCc2nn(CC(=O)c3ccc(Cl)cc3)c3[n+]2CCCCC3)c1
Completion: 4.55 µM

Prompt: Provide only the value of recorded AC50 for CC[N+](C)(CC)CCC(c1ccccc1)C1CCCCC1 (stereo not given)
Completion: > 26 µM (inactive)

Prompt: Provide only the value of recorded AC50 for COc1cccc(/C=N/Nc2ncnc(Cl)c2N)c1O
Completion: 4.32 µM

Prompt: Provide only the value of recorded AC50 for CCOc1ccccc1NC(=O)c1nc(S(=O)(=O)Cc2cccc(C)c2)ncc1Cl
Completion: 7.91 µM

Prompt: Provide only the value of recorded AC50 for O=C(c1cc(COc2cccc3cnccc23)on1)N1CCCC(CCCO)C1 (stereo not given)
Completion: 2.04 µM

Prompt: Provide only the value of recorded AC50 for CCC(CO)Oc1cc(NCc2ccc(C(C)(C)C)cc2)c2ncn(C(C)C)c2c1 (stereo not given)
Completion: 2.45 µM

Prompt: Provide only the value of recorded AC50 for On1onc2c3cc(-c4ccccc4)nc3ccc21
Completion: 5.23 µM

Prompt: Provide only the value of recorded AC50 for CC1=NNC(=O)/C1=C\c1cn(-c2ccccc2)nc1-c1ccc(Cl)cc1
Completion: 10.9 µM

Prompt: Provide only the value of recorded AC50 for CN(C)c1nc(N/N=C/c2ccccc2O)nc(Nc2ccc(F)cc2)n1
Completion: 11.3 µM

Prompt: Provide only the value of recorded AC50 for O=[N+]([O-])c1c(Nc2ccc(O)cc2)cc(Cl)c2nonc12
Completion: 8.76 µM

---

Tested on: INS-1E rat beta cells, no cytokines, CellTiter-Glo ATP, 48 h
Assay: cytokine-free beta-cell viability effect – INS-1E rat cells, ATP luminescence, cherry pick, counter-screen for beta-cell apoptosis protection project, dose response (AID 463229)
measuredParameter: AC50

Prompt: Provide only the value of recorded AC50 for CCN(Cc1ccccc1)C(c1cccs1)c1nnnn1C1CCCCC1 (stereo not given)
Completion: 13.4 µM

Prompt: Provide only the value of recorded AC50 for NC(=O)c1ccc(N2CCN(S(=O)(=O)c3cccs3)CC2)c([N+](=O)[O-])c1
Completion: 6.36 µM

Prompt: Provide only the value of recorded AC50 for CCN(C1CCCCC1)S(=O)(=O)c1ccc(S(=O)(=O)NCc2ccncc2)cc1
Completion: 6.3 µM

Prompt: Provide only the value of recorded AC50 for Cc1ccc(-c2sc(-c3ccccc3)nc2CC(=O)Nc2ccccc2F)cc1
Completion: 2.06 µM

Prompt: Provide only the value of recorded AC50 for CCCC(=O)NC(c1ccc(Cl)cc1Cl)c1ccc2cccnc2c1O (stereo not given)
Completion: 2.3 µM

Prompt: Provide only the value of recorded AC50 for COc1cc(OC)c2cc(C(=O)N/N=C/c3cccc(OC)c3O)[nH]c2c1
Completion: 15.5 µM

Prompt: Provide only the value of recorded AC50 for Cc1cc(-c2ccccc2)cc(C)[n+]1Cc1ccccc1
Completion: 0.667 µM

Prompt: Provide only the value of recorded AC50 for COc1ccc(Br)cc1CN1CCN(Cc2c[nH]c3ccccc23)CC1
Completion: 7.35 µM

Prompt: Provide only the value of recorded AC50 for CC(C)c1cccc(C(C)C)c1OC(=O)[C@H]1OC(C(C)(C)C)=C[C@@H]1c1ccccc1
Completion: 7.8 µM

Prompt: Provide only the value of recorded AC50 for O=C(N/N=C(\c1ccccc1)c1ccccn1)c1cccc([N+](=O)[O-])c1
Completion: 2.11 µM

Prompt: Provide only the value of recorded AC50 for O=[N+]([O-])c1cc(/C=N/Nc2nc3ccccc3[nH]2)c(O)cc1O
Completion: 2.01 µM

Prompt: Provide only the value of recorded AC50 for Nc1ccccc1C#CC(=O)c1ccccc1
Completion: 11.9 µM

Prompt: Provide only the value of recorded AC50 for O=C(N/N=C/c1ccc(O)cc1O)c1ccc(NC(=O)C2CCCCC2)cc1
Completion: 13 µM

Prompt: Provide only the value of recorded AC50 for COc1ccc(O)c(/C=N/Nc2nc(Nc3ccccc3)nc(-n3nc(C)cc3C)n2)c1
Completion: 11.3 µM

Prompt: Provide only the value of recorded AC50 for Cc1ccc(C)c(S(=O)(=O)Nc2cc(SCC(=O)O)c(O)c3ccccc23)c1
Completion: 7.19 µM

Prompt: Provide only the value of recorded AC50 for CCCn1c(Nc2nc3ccccc3n2C)nc2ccccc21
Completion: 7.26 µM

Prompt: Provide only the value of recorded AC50 for CCN(CC)S(=O)(=O)c1ccc(N2CCN(c3ccccc3OC)CC2)c(N)c1
Completion: 5.19 µM

Prompt: Provide only the value of recorded AC50 for Oc1ccc(Nc2nc(-c3ccc4ccccc4c3)cs2)cc1
Completion: 7.98 µM

Prompt: Provide only the value of recorded AC50 for CCc1cc[n+](C2=C([O-])c3ccccc3C(=O)/C2=N\S(=O)(=O)c2cccs2)cc1
Completion: 9.35 µM

Prompt: Provide only the value of recorded AC50 for Cc1csc2ncnc(NCCc3ccccn3)c12
Completion: 6.88 µM

Prompt: Provide only the value of recorded AC50 for Cc1ccc2nc(NNC(=O)c3ccc(S(=O)(=O)N4CCc5ccccc5C4)cc3)sc2c1
Completion: 4.18 µM

Prompt: Provide only the value of recorded AC50 for O=C(NCc1cccnc1)/C(=C\c1ccc(-c2ccc(Cl)c(Cl)c2)o1)S(=O)(=O)c1ccccc1
Completion: 4.62 µM

Prompt: Provide only the value of recorded AC50 for c1ccc(-c2nc3nonc3nc2-c2ccccc2)cc1
Completion: 11.1 µM

Prompt: Provide only the value of recorded AC50 for CC(C)(C)OC(=O)NCc1ccc(NC(=O)c2nc[nH]c2C(=O)NCCNC(=O)c2[nH]cnc2C(=O)Nc2ccc(CNC(=O)OC(C)(C)C)cc2)cc1
Completion: 10.8 µM

Prompt: Provide only the value of recorded AC50 for COc1ccc(CCNc2ncnc3c2oc2ccccc23)cc1OC
Completion: 3.41 µM

Prompt: Provide only the value of recorded AC50 for Cn1nc(C(C)(C)C)cc1C(=O)NCc1ccc2c(c1)OCO2
Completion: 4.47 µM

Prompt: Provide only the value of recorded AC50 for O=C(NCCCn1ccnc1)c1ccc(N2CCCCCC2)c([N+](=O)[O-])c1
Completion: 8.09 µM

Prompt: Provide only the value of recorded AC50 for Cc1ccccc1OCC(O)CNC1CCC(NCC(O)COc2ccccc2C)CC1 (stereo not given)
Completion: 6.66 µM

Prompt: Provide only the value of recorded AC50 for CC(=O)NN1C(=O)c2ccc3c4c(ccc(c24)C1=O)C(=O)N(NC(C)=O)C3=O
Completion: 3.65 µM

Prompt: Provide only the value of recorded AC50 for Cc1ccccc1C(=O)Nc1cccc(C(=O)N/N=C/c2cc(Cl)cc([N+](=O)[O-])c2O)c1
Completion: 13.3 µM

Prompt: Provide only the value of recorded AC50 for CCOC(=O)CC1CCCCN1C(=O)c1cc(COc2cccc3cnccc23)on1 (stereo not given)
Completion: 8.19 µM

Prompt: Provide only the value of recorded AC50 for Cc1ccc([N+](=O)[O-])c(OCCN2CCCCCC2)c1
Completion: 7.14 µM

Prompt: Provide only the value of recorded AC50 for COc1ccc(CNCCC(c2ccccc2)c2ccc3c(c2)OCO3)cc1 (stereo not given)
Completion: 15.2 µM

Prompt: Provide only the value of recorded AC50 for CCCCCCCCn1ccc(=N)cc1
Completion: 0.65 µM

Prompt: Provide only the value of recorded AC50 for CCCCCCOc1ccc(CN2CCN(C)CC2)cc1
Completion: 11 µM

Prompt: Provide only the value of recorded AC50 for Cn1c(-c2ccccc2)cc2c3no[n+]([O-])c3ccc21
Completion: 7.82 µM

Prompt: Provide only the value of recorded AC50 for COc1cccc(N2CCN(c3ncnc4c3[nH]c3ccc(F)cc34)CC2C)c1 (stereo not given)
Completion: 3.09 µM

Prompt: Provide only the value of recorded AC50 for Cc1cc(C(=O)N/N=C/c2cc(N=Nc3ccccc3)ccc2O)n[nH]1
Completion: 3.23 µM

Prompt: Provide only the value of recorded AC50 for c1ccc2c(c1)ncn2CCCCOc1ccc2c(c1)CCC2
Completion: 7.37 µM

Prompt: Provide only the value of recorded AC50 for CCCCn1c(=N)n(CC(=O)c2ccc(Br)s2)c2ccccc21
Completion: 13.1 µM
